Origin of values: PubChem BioAssay AID256

tested on: CD2F1 mice, L1210 leukemia ip, survival T/C; experiment: NCI In Vivo Anticancer Drug Screen. Data for tumor model L1210 Leukemia (intraperitoneal) in CD2F1 (CDF1) mice; conditions: endpoint: mean survival time; dose: 200.0 mg/kg/injection; schedule: Q04DX003 (ip); vehicle: saline with Tween-80; higher = longer survival
Toxic doses and inconclusive results are not listed.
Each entry below carries its recorded T/C.

OC(Cc1ccccn1)c1ccccc1 (configuration not stated) : 101 % of control
COc1ccc(CN(CCO)Cc2ccccc2)cc1OC : 97 % of control
NOCc1cc(Cl)sc1Cl : 121 % of control
CCOC(=O)c1cnc[nH]c1=O : 104 % of control
Nc1cccc2cc3ccccc3[n+]([O-])c12 : 108 % of control

Short answer for Br/C(C=Nc1ccccc1)=C\Nc1ccccc1 : T/C was 108 % of control

Short answer for C/C(CCC(CC(=O)O)C(C)C)=N\NC(N)=O (configuration not stated) : T/C was 97 % of control

Short answer for CCOC(=O)C(CCC#N)(CCC#N)C(=O)OCC : T/C was 102 % of control

Short answer for O=[N+]([O-])c1ccc2c(c1)C(Br)c1cc(Br)ccc1-2 (configuration not stated) : T/C was 100 % of control

Short answer for O=C(CCCCl)Oc1ccccc1 : T/C was 87 % of control

Short answer for Nc1nc(N)c2ncn(Cc3ccccc3)c2n1 : T/C was 93 % of control

Short answer for CCC1CCC(NC(=O)NC)CC1 (configuration not stated) : T/C was 92 % of control

Short answer for O=S(=O)(C1CCCCC1)N1N=NC2CCCCC21 (configuration not stated) : T/C was 102 % of control

Short answer for COC(C(N)=O)(c1ccccc1)C(F)(F)F (configuration not stated) : T/C was 100 % of control

Short answer for O=C(c1ccccc1)C(Br)C(Br)c1ccccc1 (configuration not stated) : T/C was 90 % of control

Short answer for COc1cc(/C=C/c2ccccn2)cc(OC)c1OC : T/C was 91 % of control

Short answer for C1CC[N-]CC1.C1CC[N-]CC1.[Cl][Pt+2]([Cl])([Cl])[Cl] : T/C was 92 % of control

Short answer for Cc1onc(-c2ccccc2)c1C(=O)O : T/C was 93 % of control

Short answer for CCOC(=O)NC(=O)CC#N : T/C was 93 % of control

Short answer for Nc1ncnc2nc(-c3ccccc3)[nH]c12 : T/C was 99 % of control

Short answer for CCC(=O)c1cc([N+](=O)[O-])ccc1NC(C)=O : T/C was 94 % of control

Short answer for COc1cc2ccc(CC(=S)N3CCOCC3)cc2cc1OC : T/C was 95 % of control

Short answer for C/C(=C\C(=O)Nc1ccc(S(=O)(=O)F)cc1)c1ccc([N+](=O)[O-])cc1 : T/C was 101 % of control

Short answer for CCOC(=O)C(Cc1ccccc1Cl)(Cc1ccccc1Cl)c1ccccc1 : T/C was 98 % of control

Short answer for CCC(=O)Oc1[nH]c(C)c(C(C)=O)c1C : T/C was 97 % of control

Short answer for COc1cc(C=Nc2cccc3ccccc23)cc(OC)c1OC : T/C was 96 % of control

Short answer for O=C1c2ccccc2C(=O)c2c1ccc(O)c2O : T/C was 100 % of control

====

Tested on: CD2F1 mice, L1210 leukemia ip, survival T/C
Assay: NCI In Vivo Anticancer Drug Screen. Data for tumor model L1210 Leukemia (intraperitoneal) in CD2F1 (CDF1) mice
Details: endpoint: mean survival time; dose: 50.0 mg/kg/injection; schedule: Q01DX009 (ip); vehicle: other; higher = longer survival
Method: The antitumor activity of compounds was measured in mice bearing transplantable tumors. Survival or tumor size were measured and the results are expressed as the measurement made in the treated group (T) divided by the measurement made in the vehicle treated control group (C). The tumor model used in this assay is L1210 Leukemia (intraperitoneal) in CD2F1 (CDF1) mice
Toxic doses and inconclusive results are not listed.
parameterMeasured: T/C

Illustrative cases are given below, each with its answer.
CC(=O)OCC1OC(OC(C)=O)C(NC(=O)NS(=O)(=O)c2ccc(C)cc2)C(OC(C)=O)C1OC(C)=O (stereo not given) : 93 % of control
O=C(O)C(Br)C(Br)c1ccccc1[N+](=O)[O-] (stereo not given) : 100 % of control

Short answer for CCOC(=O)c1c[nH]c2oc(/C=N/N3CC(CN4CCOCC4)OC3=O)cc2c1=O (stereo not given) : T/C was 110 % of control

Short answer for Clc1ccc(N=C/C=C/c2ccccc2)cc1 : T/C was 97 % of control

Short answer for COc1ncc(C2OC(CO)C(O)C2O)c(OC)n1 (stereo not given) : T/C was 104 % of control

Short answer for NC(=O)CC(N)C(=O)O (stereo not given) : T/C was 102 % of control

Short answer for COc1cc2c(cc1OC)-c1cc(C)c3cc(OC)c(OC)cc3[n+]1CC2 : T/C was 115 % of control

Short answer for CC(C(=O)c1cccs1)=C(C(F)(F)F)C(F)(F)F : T/C was 97 % of control

Short answer for CCOC(=O)C(Br)C(Br)c1cccc([N+](=O)[O-])c1 (stereo not given) : T/C was 98 % of control

Short answer for CC(=O)OCC1OC(n2cc(F)c(=O)[nH]c2=O)CC1OC(C)=O (stereo not given) : T/C was 123 % of control

====

Each entry below carries its recorded T/C.
system: CD2F1 mice, L1210 leukemia ip, survival T/C; assay: NCI In Vivo Anticancer Drug Screen. Data for tumor model L1210 Leukemia (intraperitoneal) in CD2F1 (CDF1) mice; conditions: endpoint: mean survival time; dose: 200.0 mg/kg/injection; schedule: Q01DX001 (ip); vehicle: saline with Tween-80; higher = longer survival
Inconclusive results and toxic doses are left out.

Illustrative cases are given below, each with its answer.
O=C(c1ccccc1)C(Br)C(Br)c1ccccc1 (configuration not stated) : 91 % of control
CC(=O)C1=C2c3ccccc3C(=O)c3c(Br)cc(S(=O)(=O)O)c(c32)NC1 : 94 % of control
C/C(=C\C(=O)Nc1ccc(S(=O)(=O)F)cc1)c1ccc([N+](=O)[O-])cc1 : 92 % of control
C1CCC2NN=NC2C1 (configuration not stated) : 98 % of control
OC1(c2ccccc2)c2cc(-c3ccccc3)c(-c3ccccc3)cc2C(c2ccccc2)(c2ccccc2)C1(O)c1ccccc1 (configuration not stated) : 96 % of control
CC1CC(C)(C)N=C(CCCCCCl)O1 (configuration not stated) : 105 % of control

Please find the next compound below.
The measured T/C that O=C(N/N=C/c1ccccc1)c1nn[nH]n1 showed for CD2F1 mice, L1210 leukemia ip, survival T/C is 88 % of control

====

Each entry below carries its recorded T/C.
test system: CD2F1 mice, L1210 leukemia ip, survival T/C; assay: NCI In Vivo Anticancer Drug Screen. Data for tumor model L1210 Leukemia (intraperitoneal) in CD2F1 (CDF1) mice; conditions: endpoint: mean survival time; dose: 100.0 mg/kg/injection; schedule: Q04DX003 (ip); vehicle: saline with Tween-80; higher = longer survival
Inconclusive results and toxic doses are left out.

Short answer for CN(C)S(=O)(=O)Oc1ccc(N)cc1 : T/C was 103 % of control

Short answer for COC(=O)C1C2CC(C3OC23)C1C(=O)OC (stereo unspecified) : T/C was 97 % of control

Short answer for CCOC(=O)/C(C#N)=C1\CCc2cc(OC)ccc21 : T/C was 103 % of control

Short answer for CNC(=O)Sc1nnnc2ccccc12 : T/C was 101 % of control

Short answer for CCO/C=C1\SC(=S)N(c2ccccc2C)C1=O : T/C was 103 % of control

====

tested on: CD2F1 mice, L1210 leukemia ip, survival T/C; assay: NCI In Vivo Anticancer Drug Screen. Data for tumor model L1210 Leukemia (intraperitoneal) in CD2F1 (CDF1) mice; conditions: endpoint: mean survival time; dose: 100.0 mg/kg/injection; schedule: Q01DX009 (ip); vehicle: saline; higher = longer survival
Inconclusive results and toxic doses are left out.
parameterMeasured: T/C

CONc1ccn(C2OC(CO)C(O)C2O)c(=O)n1 (configuration not stated) : 121 % of control
CN(N=O)C(=O)N[C@@H](C=O)[C@@H](O)[C@H](O)[C@H](O)CO : 111 % of control
NC(CSCc1cccs1)C(=O)O (configuration not stated) : 90 % of control

Short answer for O=C(O)CS (tested in a mixture with another compound) : T/C was 93 % of control

Short answer for O.O=C(O)CN(CCN(CC(=O)O)CC(=O)O)CC(=O)O.[Rh+2] : T/C was 100 % of control

Short answer for C1CCC2CN(CCCN3CCOCC3)CC2C1 (configuration not stated) : T/C was 102 % of control

Short answer for CCOC(=O)C(F)(F)F : T/C was 95 % of control
